B1: OAS1 (parent)
chain: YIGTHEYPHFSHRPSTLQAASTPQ

# Variants of: B1
# method summary: protein stability index of a GFP-peptide fusion (GPS, HEK-293T) (PSI 1-6); higher = more stable;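 also: lentivirally expressed fusions sorted by FACS into six bins by GFP to DsRed ratio, PSI derived from sequencing read proportions per bin multiplied by bin number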
# details: c terminus: a fixed tail appended

var: Y1M
protein stability index: 3.66
--
var: P23I
protein stability index: 2.74
--
var: Q18S
protein stability index: 1.65
--
var: S11M
protein stability index: 1.93
--
var: T16I
protein stability index: 1.6
--
var: A19K
protein stability index: 1.68
--
var: Y1I
protein stability index: 3.58
--
var: F10P
protein stability index: 2.06
--
var: H5D
protein stability index: 2.52
--
var: A19P
protein stability index: 2.11
--
var: R13Y
protein stability index: 2.09
--
var: E6H
protein stability index: 2.32
--
var: L17D
protein stability index: 2.41
--
var: T4I
protein stability index: 1.84
--
var: Q24C
protein stability index: 1.69
--
var: R13T
protein stability index: 1.79
--
var: E6C
protein stability index: 2.26
--
var: I2D
protein stability index: 3.48
--
var: Y1L
protein stability index: 3.54
--
var: P8G
protein stability index: 1.39
--
var: E6Q
protein stability index: 1.68
--
var: T22G
protein stability index: 1.59
